The values you see were collected from patent US20220378801A1.

Listed below: IC50 values for each entry.
- assayed target: NLRP3 inflammasome (Homo sapiens, UniProt Q96P20)
- Sequence (Q96P20 whole entry): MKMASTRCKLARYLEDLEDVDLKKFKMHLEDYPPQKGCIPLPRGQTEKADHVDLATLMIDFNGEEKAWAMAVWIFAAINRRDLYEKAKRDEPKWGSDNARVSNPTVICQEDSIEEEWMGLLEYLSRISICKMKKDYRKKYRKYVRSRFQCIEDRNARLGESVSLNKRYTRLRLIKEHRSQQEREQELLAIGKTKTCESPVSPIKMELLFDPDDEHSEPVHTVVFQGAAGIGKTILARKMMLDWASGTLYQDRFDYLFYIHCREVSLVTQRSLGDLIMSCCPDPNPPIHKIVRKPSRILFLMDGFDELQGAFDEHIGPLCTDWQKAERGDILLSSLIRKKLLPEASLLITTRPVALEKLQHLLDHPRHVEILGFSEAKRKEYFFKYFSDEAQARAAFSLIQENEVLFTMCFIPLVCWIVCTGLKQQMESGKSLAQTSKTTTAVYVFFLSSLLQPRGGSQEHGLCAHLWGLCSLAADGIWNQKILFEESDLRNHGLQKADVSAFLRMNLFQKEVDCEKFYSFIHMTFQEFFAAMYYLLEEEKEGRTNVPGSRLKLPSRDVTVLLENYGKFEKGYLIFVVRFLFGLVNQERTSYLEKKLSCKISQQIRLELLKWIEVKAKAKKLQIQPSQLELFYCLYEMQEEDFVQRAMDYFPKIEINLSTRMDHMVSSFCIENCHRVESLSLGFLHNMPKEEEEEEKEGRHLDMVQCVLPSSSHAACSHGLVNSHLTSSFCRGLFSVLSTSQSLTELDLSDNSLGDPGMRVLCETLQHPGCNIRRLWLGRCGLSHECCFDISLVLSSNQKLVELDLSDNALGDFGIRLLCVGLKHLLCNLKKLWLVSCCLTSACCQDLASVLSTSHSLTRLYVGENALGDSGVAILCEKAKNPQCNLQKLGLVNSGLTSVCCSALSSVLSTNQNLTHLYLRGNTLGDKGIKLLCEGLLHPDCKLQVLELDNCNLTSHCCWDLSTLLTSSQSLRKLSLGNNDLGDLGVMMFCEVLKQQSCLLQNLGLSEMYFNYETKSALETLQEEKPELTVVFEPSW
- run description: NLRP3 inflammasome activation assay, IL-1 beta release, HMDM cells, MSU stimulation
- Format: cell-based
- study conditions: LPS-primed primary human monocyte-derived macrophages; MSU 150 μg/ml 3 h; IL-1β by AlphaLISA

Example compounds with recorded IC50:
compound	IC50
O=C(N=S1(=O)NC(=O)c2ccccc21)Nc1c2c(cc3c1CCC3)CCC2 (racemic) [Example 1]	< 1000 nM
O=C(Nc1c2c(cc3c1CCC3)CCC2)NS1(=O)=NC(=O)c2sccc21 (single isomer, unassigned) [Example 35]	1000 to 10000 nM
O=C(Nc1c2c(c(F)c3c1CCC3)CCC2)NS1(=O)=NC(=O)c2ccccc21 (centres unmarked) [Example 5]	< 1000 nM
O=C(Nc1c2c(c(F)c3c1CCC3)CCC2)NS1(=O)=NC(=O)c2sccc21 (single isomer, unassigned) [Example 54]	1000 to 10000 nM
O=C(Nc1c2c(cc3c1CCC3)CCC2)NS1(=O)=NC(=O)c2ccccc2C1 (single isomer, unassigned) [Example 34]	< 1000 nM

Field request: IC50 | item: CC(C)(O)c1ccc2c(c1)S(=O)(=NC(=O)Nc1c3c(cc4c1CCC4)CCC3)NC2=O (centres unmarked) [Example 30]
< 1000 nM

Field request: IC50 | item: O=C(Nc1c2c(cc3c1CCC3)CCC2)NS1(=O)=NC(=O)c2c(F)cccc21 (centres unmarked)
< 1000 nM

Field request: IC50 | item: O=C(N=S1(=O)NC(=O)c2cccnc21)Nc1c2c(cc3c1CCC3)CCC2 (centres unmarked)
1000 to 10000 nM

* * *

Listed below: pIC50 values for each entry.
- assayed target: NLRP3 inflammasome (Homo sapiens)
- run description: NLRP3 inflammasome activation assay, IL-1 beta release, HMDM cells, MSU stimulation
- Type: cell-based
- study conditions: LPS-primed primary human monocyte-derived macrophages; MSU 150 μg/ml 3 h; IL-1β by AlphaLISA
pIC50: −log10 of the molar value.

Example molecules with recorded pIC50:
molecule	assayed target	pIC50
O=C(N=S1(=O)NC(=O)c2ccccc21)Nc1c2c(cc3c1CCC3)CCC2 (single isomer, unassigned) [Example 1b]	NLRP3 inflammasome (Homo sapiens)	> 6.00
O=C(Nc1cc2c(c3c1CCC3)CCC2)NS1(=O)=NC(=O)c2ccccc21 (stereo not shown)	NLRP3 inflammasome (Homo sapiens)	5.00 to 6.00
Cc1cccc2c1C(=O)N=S2(=O)NC(=O)Nc1c2c(cc3c1CCC3)CCC2 (stereo not shown)	NLRP3 inflammasome (Homo sapiens)	5.00 to 6.00

Field request: pIC50 | item: O=C(Nc1c2c(c(F)c3c1CCC3)CCC2)NS1(=O)=NC(=O)c2sccc21 (single isomer, unassigned) [Example 55]
> 6.00

Field request: pIC50 | item: CC(C)(O)c1ccc2c(c1)S(=O)(=NC(=O)Nc1c3c(cc4c1CCC4)CCC3)NC2=O (single isomer, unassigned) [Example 41]
> 6.00

Field request: pIC50 | item: O=C(Nc1c2c(cc3c1CCC3)CCC2)NS1(=O)=NC(=O)c2cc(F)ccc21 (stereo not shown) [Example 26]
> 6.00

Field request: pIC50 | item: O=C(Nc1c2c(cc3c1CCC3)CCC2)NS1(=O)=NC(=O)c2cc(Cl)ccc21 (stereo not shown)
5.00 to 6.00

* * *

- assayed target: NLRP3 inflammasome (Homo sapiens)
- run description: NLRP3 inflammasome activation assay, IL-1 beta release, human monocyte-like cells, Nigericin stimulation
- Assay type: cell-based
- Parameters: endogenous in cells
- study conditions: PMA-differentiated, LPS-primed human monocyte-like cells; Nigericin 3.75 μM 3 h; IL-1β by AlphaLISA
- Experimental: The following assays can be used to determine the inhibitory activity of test compounds on the NLRP3 inflammasome using common stimuli nigericin (Invivogen) or monosodium urate crystals (MSU)(Invivogen). […] For IL-1β quantification, supernatants are analyzed using AlphaLISA kits according to the manufacturer's instructions (Perkin Elmer AlphaLISA AL220F). […]
pIC50: −log10 of the molar value.
reported property: pIC50

molecule	pIC50
CC(C)c1ccc2c(c1NC(=O)NS1(=O)=NC(=O)c3sccc31)CCO2 (single isomer, unassigned)	5.00 to 6.00
O=C(Nc1c(Br)ccc2c1CCO2)NS1(=O)=NC(=O)c2sccc21 (single isomer, unassigned)	4.52 to 5.00

Field request: pIC50 | item: O=C(Nc1c2c(cc3c1CCC3)CCC2)NS1(=O)=NC(=O)c2c(Cl)cccc21 (stereo not shown) [Example 11]
5.00 to 6.00

Field request: pIC50 | item: COc1cc(-c2ccc3c(c2NC(=O)NS2(=O)=NC(=O)c4sccc42)CCC3)ccn1 (single isomer, unassigned) [Example 52]
5.00 to 6.00

* * *

- assayed target: NLRP3 inflammasome (Homo sapiens, UniProt Q96P20)
- run description: NLRP3 inflammasome activation assay, IL-1 beta release, HMDM cells, MSU stimulation
- Format: cell-based
- study conditions: LPS-primed primary human monocyte-derived macrophages; MSU 150 μg/ml 3 h; IL-1β by AlphaLISA
pIC50: −log10 of the molar value.
reported property: pIC50

Example molecules with recorded pIC50:
molecule	pIC50
O=C(N=S1(=O)NC(=O)c2ccc(Br)cc21)Nc1c2c(cc3c1CCC3)CCC2 (stereo not drawn) [Example 24]	5.00 to 6.00
CC(C)(O)c1ccc2c(c1)S(=O)(=NC(=O)Nc1c3c(cc4c1CCC4)CCC3)NC2=O (single isomer, unassigned) [Example 40]	5.00 to 6.00
O=C(Nc1c2c(cc3c1CCC3)CCC2)NS1(=O)=NC(=O)c2c(Cl)cccc21 (stereo not drawn) [Example 11]	5.00 to 6.00
O=C(Nc1c2c(cc3c1CCC3)CCC2)NS1(=O)=NC(=O)c2ccncc21 (stereo not drawn) [Example 7]	5.00 to 6.00
O=C(Nc1c2c(c(F)c3c1CCC3)CCC2)NS1(=O)=NC(=O)c2ccccc21 (single isomer, unassigned) [Example 37]	> 6.00
O=C(Nc1c2c(cc3c1CCC3)CCC2)NS1(=O)=NC(=O)c2ccc(F)cc21 (single isomer, unassigned) [Example 63]	5.00 to 6.00

// map COc1ccc2c(c1)S(=O)(NC(=O)Nc1c3c(cc4c1CCC4)CCC3)=NC2=O (single isomer, unassigned) [Example 48] to recorded pIC50 (system: NLRP3 inflammasome (Homo sapiens, UniProt Q96P20))
> 6.00

// map O=C(Nc1c2c(cc3c1CCC3)CCC2)NS1(=O)=NC(=O)c2cc(F)ccc21 (single isomer, unassigned) [Example 62] to recorded pIC50 (system: NLRP3 inflammasome (Homo sapiens, UniProt Q96P20))
> 6.00

// map O=C(Nc1c2c(cc3c1CCC3)CCC2)NS1(=O)=NC(=O)c2sccc21 (stereo not drawn) [Example 4] to recorded pIC50 (system: NLRP3 inflammasome (Homo sapiens, UniProt Q96P20))
> 6.00

* * *

Listed below: pIC50 values for each entry.
- assayed target: NLRP3 inflammasome (Homo sapiens)
- run description: NLRP3 inflammasome activation assay, IL-1 beta release, HMDM cells, MSU stimulation
- Type: cell-based
- study conditions: LPS-primed primary human monocyte-derived macrophages; MSU 150 μg/ml 3 h; IL-1β by AlphaLISA
pIC50: −log10 of the molar value.

molecule	assayed target	pIC50
O=C(Nc1c2c(cc3c1CCC3)CCC2)NS1(=O)=NC(=O)c2sccc21 (single isomer, unassigned) [Example 36]	NLRP3 inflammasome (Homo sapiens)	> 6.00
COc1cc(-c2cccc(C(C)C)c2NC(=O)NS2(=O)=NC(=O)c3ccc(C(C)(C)O)cc32)ccn1 (stereo not drawn) [Example 31]	NLRP3 inflammasome (Homo sapiens)	5.00 to 6.00
O=C(Nc1c2c(cc3c1CCC3)CCC2)NS1(=O)=NC(=O)c2c(Cl)cccc21 (single isomer, unassigned) [Example 42]	NLRP3 inflammasome (Homo sapiens)	> 6.00
O=C(Nc1c2c(cc3c1CCC3)CCC2)NS1(=O)=NC(=O)c2ccccc2C1 (stereo not drawn) [Example 3]	NLRP3 inflammasome (Homo sapiens)	> 6.00
O=C(N=S1(=O)NC(=O)c2ccc(Br)cc21)Nc1c2c(cc3c1CCC3)CCC2 (single isomer, unassigned) [Example 60]	NLRP3 inflammasome (Homo sapiens)	> 6.00

Shifting focus to the molecule that follows.
// map O=C(Nc1c2c(c(F)c3c1CCC3)CCC2)NS1(=O)=NC(=O)c2sccc21 (stereo not drawn) [Example 19] to recorded pIC50 (system: NLRP3 inflammasome (Homo sapiens))
> 6.00
